B1: MFF (parent)
chain: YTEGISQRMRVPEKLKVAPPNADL

Variants of: B1
protocol.summary: protein stability index of a GFP-peptide fusion (GPS, HEK-293T) (PSI 1-6); higher = more stable;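 also: lentivirally expressed fusions sorted by FACS into six bins by GFP to DsRed ratio, PSI derived from sequencing read proportions per bin multiplied by bin number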
experimental.conditions: c terminus: a fixed tail appended
Reported protein stability index by item:
No unit in the answer, please; the number alone is enough.

Sample records with protein stability index:
macromolecule_sequence=YTHGISQRMRVPEKLKVAPPNADL endpoint="protein stability index" numeric_result=2.92
macromolecule_sequence=YTEGISQRMRVPEKLFVAPPNADL endpoint="protein stability index" numeric_result=2.8
macromolecule_sequence=ITEGISQRMRVPEKLKVAPPNADL endpoint="protein stability index" numeric_result=3.87
macromolecule_sequence=YTEGISQRMRVPHKLKVAPPNADL endpoint="protein stability index" numeric_result=2.98
macromolecule_sequence=YTEGISQSMRVPEKLKVAPPNADL endpoint="protein stability index" numeric_result=2.43

Problem: Tell me its protein stability index given YTEGISQRMRVPEKLKVAPLNADL as the entry.
Result: 2.24

Problem: Give the measured protein stability index for YTCGISQRMRVPEKLKVAPPNADL
Result: 2.28

Problem: Could you please provide reported protein stability index for YTEGISQRMRVPEKLKVAPPNPDL ? Thanks!
Result: 2.9

Problem: Find the measured protein stability index of YTEGISQRMRRPEKLKVAPPNADL and report it.
Result: 2.48

Problem: Look up protein stability index of YTEGISQRMRVPEKLKVAWPNADL and report it.
Result: 1.91
